Sourced from the supplement of paper PMC9170038

Test system: MS2 coat protein
Assay: apparent KD of MS2 coat protein; designed switch direction (-1 OFF switch, 1 ON switch): -1; higher = weaker reporter binding
Conditions: input ligand: none
The following sequences are listed with their measured apparent KD of MS2 coat protein values.
Reply numerically in nM, unit not repeated.

Solved cases (5 shown):
primary sequence	target or system	endpoint result
CCAAGCUUAUUCAUUAACAACAUGAGGAUCACCCAUGUGUAGGCAAUUAUGUUUGGGCUCUUUAGUGCUCGUCUUAU [Sensor-V1 #22] (Eterna round: R97, puzzle: Sensor, turn-off variant 1)	MS2 coat protein	14.7
CGUUCCACAGGAUAUACAAAACGUAUCCCAGGGCUAACAGGACAUGAGGAUCACCCAUGUAGAAGGGUGGAACU [Eternabot (L1) Solution 36] (Eterna round: R97, puzzle: Exclusion 2)	MS2 coat protein	674
UAUUAGUAAGGAUAUCCCACGUAGGACUUCGGUCCUACGUGGGAGAAGGUACAUGAGGAUCACCCAUGUCUAUU [Mod of Fisker 13 - Jieux - Exclusion 4] (Eterna round: R97, puzzle: Exclusion 4)	MS2 coat protein	14.9
AGAGCACGAGGAUAUACAAGGAUAACUCGCAGAUCGUCAGUACAUGAGGAUCACCCAUGUAGAAGGUGUUAGCA [Eternabot (Original) Solution 6] (Eterna round: R97, puzzle: Exclusion 2)	MS2 coat protein	58.9
GUGUGCAGACGGAGAUCCUACAUGAGGAUCACCCAUGUCUCACUAGCUUUUUGCUCGUCUUAUCCUCCUCUGUUCUC [Elimod 26 - Jieux - Sensor, turn-off variant 1] (Eterna round: R97, puzzle: Sensor, turn-off variant 1)	MS2 coat protein	497

query: Fill in: apparent KD of MS2 coat protein of CGGUGCUUCUGGAAACAUGAGGAUCACCCAUGUUGAGUUAGCGAGGAUAUCGGUAACACAUGUCACGAGAAGGCGCGAACCAGA [Ex NG3 #34] (Eterna round: R96, puzzle: Exclusion NG 3) is ___
result: 16.7

###

System: K4 kissing-loop RNA reporter;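 further: bound reporter read as fluorescence of individual clusters on recovered sequencing chips by microscopy, with normalized cluster intensities fitted with a binding model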
Experiment: apparent KD of K4 kissing-loop reporter; higher = weaker reporter binding
Settings: Eterna round: R107; input ligand: none
quantity kind: apparent KD of K4 kissing-loop reporter (nM)
Kindly provide the numeric value in nM only, without the unit symbol.

Worked cases, answers included:
primary sequence	apparent KD of K4 kissing-loop reporter / nM
UGAUACCAGACGGCCGCCACUUCCGUAAGUCAAAGACUUACCAAGGGAAUCGUCCAGUGAUGUUGGAGGACCGGGUCUGGUAUCU [FiskerMod 6 - Jieux - Exclusion - Tryptophan B]	1260
CUGUUUUAGUCGGCCGCCACUGCAAGUGAUGUUUGGAGUAUUAUGCCGUUUCUGUCCAUUGAACCCAGGACCGGGACCGGAUCGU [theeternabot_exclusion_KL_Trp_B_8]	206
AUUCUGUUUUUGAUGUUUUUUGUAUAAUGGCAGGAUAUCGUAGAAGCGAGAAGGGCUUUUAUGCGUUAUGAGUGAUGUUUGUAGG [ttytewvmullin]	271
GCAGGACGAGGAGGAGGAUGAAUUACUGAAGGAGCGCAUAUUUUUGCAGGUAGGUCGCGGUAAAGAAGUAUAGUGAUGUUAUAUA [SSArgA.L]	470

query: // query apparent KD of K4 kissing-loop reporter value for entry GGGCUAUAGUGAUGUUAUUGUCUAAACGAUACCAGUUCACCCGUGAACCCUUGGCAGCGUGGUGUAACCUAUCCUCGUUGCACUG [theeternabot_sameState_KL_Theo_A_28]
result: 744

###

Tested on: MS2 coat protein
Experiment: apparent KD of MS2 coat protein; designed switch direction (-1 OFF switch, 1 ON switch): -1; higher = weaker reporter binding
Conditions: Eterna round: R95; input ligand: none
quantity kind: apparent KD of MS2 coat protein (nM)
Enter your answer as a number in nM; do not include the unit.

Some sequences with recorded apparent KD of MS2 coat protein:
primary sequence	quantity kind	scale unit	endpoint result
UUUAAUUUUUUUUUUUUACAAGCUUUUUGCUCGUCUUAUACAUGAGGAUCACCCAUGUAAGUGGAGGAUAAAUUAUC [JMF 33] (puzzle: Sensor v3, turn-off variant 2)	apparent KD of MS2 coat protein	nM	24.1
UUUUAGAGAGGAUAUAUAAAGUGAAACAUGAGGAUCACCCAUGUAAUUUUAUGGAUGUAAAUAGAAGGCUCAUUUU [Mat - Exclusion 5 - JL mod - D2] (puzzle: Exclusion 5)	apparent KD of MS2 coat protein	nM	34.7
AGUACUAACACGAAAGUGUUAGUAAAAUAAGCUUGUGGUACAUGAGGAUCACCCAUGUCCUCAUAAGCUCGUCUUAU [Mat - Sensor v3 - Turn-off var 2 - D42] (puzzle: Sensor v3, turn-off variant 2)	apparent KD of MS2 coat protein	nM	20.6
AGUAGAUCUACGCUUGCGUGGAUCUGCUAUGCAGGUGUUACAUGAGGAUCACCCAUGUCCUCGUUUGCUCGUCUUAU [JL turnoff v2 99.13] (puzzle: Sensor v3, turn-off variant 2)	apparent KD of MS2 coat protein	nM	448
UGUACGAUGCGUGCUGACAUGCGUCGUGCAGCAGGUGAUACAUGAGGAUCACCCAUGUCCUCAUUUGCUCGUCUUGU [SL-sv3-2.11 JL mod] (puzzle: Sensor v3, turn-off variant 2)	apparent KD of MS2 coat protein	nM	85.6

query: Need apparent KD of MS2 coat protein of CAUACUCAAGUCAGGAUAUACAGUCGAAUACGGGUGUAGAAGGGACAUGAGGAUCACCCAUGUAGAGAGUAAAG [EX-4 Malc #22] (puzzle: Brourd's mod of Exclusion 4) , thanks.
result: 36.1

query: Same question, ACCCAACAUGAGGAUCACCCAUGUCAGGAUAUCCAAGCGAAAGCAAAAGCGAAAGCAAGGAGAAGGGACAGAGG [ChP 04-04-2015 #6] (puzzle: Exclusion 1) this time
result: 180

query: Also, GGGAUGUCAGGAUAUCCAAAAGUCCGCCAGUACGGCAGACAGGAGAAGGGACAUGAGGAUCACCCAUGUAAAGA [Leinrete] (puzzle: Exclusion 4) please.
result: 38.3

query: And for AGUUGGCGAGGAUAUACAUGAGGAUCACCCAUGUGAAUAAGAAUAGUGAGGAAGAAAAGUAGAAGGCGCUGACA [Mat - Exclusion 3 - Mod of Salish D36] (puzzle: Exclusion 3) ?
result: 44.5

query: Also check CUUUUGUGAGGAUAUCAGUAGUAAAAAAAUAAAAUUACUACUGAGAAGGCACAUGAGGAUCACCCAUGUUCCUC [salish99_ex4_r3_009] (puzzle: Exclusion 4)
result: 38.4

###

apparent KD of MS2 coat protein listing for selected sequences.
Test system: MS2 coat protein
Assay: apparent KD of MS2 coat protein; designed switch direction (-1 OFF switch, 1 ON switch): -1; higher = weaker reporter binding
Details: Eterna round: R95; input ligand: FMN 200 uM
Quick note: number first, unit second.

primary sequence	target or system	quantity kind	endpoint result
AAUACUAACAGCUGACUGUUAGUACUGUAGGUUUGUGUUACAUGAGGAUCACCCAUGUCCUCAUAGGCUCGUCUUGU [Mat - Sensor v3 - Turn-off var 2 - D98] (puzzle: Sensor v3, turn-off variant 2)	MS2 coat protein	apparent KD of MS2 coat protein	586 nM

Kindly review the next sequence as well.
query: Give apparent KD of MS2 coat protein (MS2 coat protein) of the following sequence: GAUGAGGUAGGAUAUACGAGAAGAUAGGGUAGAGAGAGAACACAUGAGGAUCACCCAUGUAGAAGGACCAGUAG [Mat - Exclusion 2 - Mod of my Tesla design - D74] (puzzle: Exclusion 2)
result: 48.9 nM

###

System: MS2 coat protein
Test: apparent KD of MS2 coat protein; designed switch direction (-1 OFF switch, 1 ON switch): -1; higher = weaker reporter binding
Settings: input ligand: FMN 200 uM
Measured apparent KD of MS2 coat protein values are reported for all entries that follow.
Numeric answer only, unit nM assumed.

Example entries and their recorded answers appear below.
primary sequence	apparent KD of MS2 coat protein (nM)
AUGCUCCGUGUAGGAUAUCGCCGCACCACUCGGCGAGAAGGACAUGAGGAUCACCCAUGUAUGUUAUUAUCACGUGUGGCGCGC [Design 43] (Eterna round: R96, puzzle: Exclusion NG 1)	15.1
CCGGUUGGCGCAGGAUAUACAUGAGGAUCACCCAUGUUCAUGAGGAUCAUCCAUGAGUUUUUGUUGUAGAAGGGUGGCCCGGCC (Eterna round: R96, puzzle: Exclusion NG 2)	117
AAAUUAGCAAGUAGGUCCGACAUGAGGAUCACCCAUGUAAUCUGAAAUUACGCUGCACGAAAGUGCGCUCGUCUUAG [Sensor-V1 #11] (Eterna round: R97, puzzle: Sensor, turn-off variant 1)	149
AAAAUACGCACAGGAUAUCGAUACAUGAGGAUCACCCAUGUAACAUGGACUGGUCAGCAGAAAAGCGAGAAGGGUGCUGACGAC [Lediaroren] (Eterna round: R96, puzzle: Exclusion NG 2)	334

Consider now this further sequence.
query: Need apparent KD of MS2 coat protein, item AUGGGUCCUCACGGAGCUACAUGAGGAUCACCCAUGUGGAUUGAGGAUAUCGACAGCCGACGGCUCGAGAAGGCAGUUUACUGU [Ex NG3 #96] (Eterna round: R96, puzzle: Exclusion NG 3)
result: 35
